assay info: NCI Yeast Anticancer Drug Screen. Data for the cln2 rad14 strain (AID 165);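 also: 0% = growth equal to vehicle treated cultures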
test settings: S. cerevisiae cln2 rad14 strain, at 5.0 µM (retest, dose inferred, filed as 0.5), stronger effect = higher value
This is part of a sample that, as a whole, favours compounds with a hit. Of some 79,000 tested, about 15% had one in any assay.
Cut-off 20% on growth inhibition, inclusive. At or above means yes (1); below means no (0).

C=C1CC(CCCl)(c2ccccc2)OC1=O (stereo unspecified) : no (0)
O=C1Nc2ccc(Br)cc2C1=Nc1ccc2c(c1)OCO2 : yes (1)
CCCCCCN(CCCCCC)CC(O)c1ccnc2ccc(OC)cc12 (stereo unspecified) : no (0)
CCOC(=O)C1=C(C)NC(C)=C(C(=O)OCCNC(=O)c2ccc(N=[N+]=[N-])cc2)C1c1ccccc1C(F)(F)F (stereo unspecified) : no (0)
OC(CCNCc1ccccc1)c1ccc2ccccc2c1 (stereo unspecified) : yes (1)

Asked: I'd appreciate it if you could say whether `Cn1c(-c2ccc(/C=N\N3CCN(/N=C/c4ccc(-c5c[n+]6ccccc6n5C)cc4)CC3)cc2)c[n+]2ccccc12` has growth inhibition at least equal to 20%.
Given back: no (0)

Asked: Is it the case that `Cc1csc(=S)n1OC(=O)NC1CCCCC1` has growth inhibition reaching or exceeding 20%?
Given back: yes (1)

Asked: Check if growth inhibition >= 20% (inclusive). Item: `Cc1cc(C(C)(C)CC(C)(C)C)ccc1O`
Given back: yes (1)

Asked: Is it the case that `Cc1cc2c(cc1C)[n+]([O-])c(-c1nc3ccccc3s1)c(N)[n+]2[O-]` has growth inhibition reaching or exceeding 20%?
Given back: no (0)

Asked: Dear colleague, could you confirm whether `CCCCCCCCCCCCNC(C)=O` has growth inhibition at or above 20%?
Given back: no (0)

Asked: Decide: growth inhibition of `CCN(CC)CCNc1ccc2ncn3c4cc(OC)c(OC)c(=O)c4c(O)c1c23` >= 20%?
Given back: no (0)

====

assay info: NCI Yeast Anticancer Drug Screen. Data for the mlh1 strain (AID 171);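 also: 0% = growth of vehicle-treated control cultures of the same strain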
test settings: S. cerevisiae mlh1 strain growth inhibition; at 11.0 µM; stronger effect = higher value
Procedure: Growth inhibition of yeast strains with defined genetic alterations is measured as a screen for potential anti-cancer activity. Selected strains with alterations in DNA damage repair or cell cycle control were exposed to compounds and growth inhibition was measured relative to vehicle treated controls. The strain used in this assay is mlh1
This is part of a sample that, as a whole, favours compounds with a hit. Of some 79,000 tested, about 15% had one in any assay.
Let's look at some molecules and their measured growth inhibition.
Your answer should be a plain number; it is taken to be in %.

Sample answers from the record:
Cn1c(=O)c2c(nc(N)n2C2OC(CO)C(O)C2O)n(C)c1=O (centres undefined) : -1
COc1cc(/C=N/Nc2nnc3c4ccccc4c4ncccc4c3n2)cc(OC)c1OC : -2
CC(C)CN(CC(C)C)C(=O)c1ccc(Cl)c(Cl)c1 : 5
OC(CCNCc1ccccc1)c1ccc2ccccc2c1 (centres undefined) : 45
O=C1NC(SSC2=NNC3(C(=O)N2)c2ccccc2-c2ccccc23)=NNC12c1ccccc1-c1ccccc12 : 2

Asked: Please supply the value of reported growth inhibition for the item `CCCCOCn1c(=O)[nH]c(=O)c2cc(Br)ccc21`
Given back: -41

Asked: Please report growth inhibition for the following molecule: `O/N=C\c1c(O)ccc2ccccc12`
Given back: 4

====

assay info: NCI Yeast Anticancer Drug Screen. Data for the wt1 strain (AID 149);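 also: 0% = growth of vehicle-treated wt1 cultures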
test settings: S. cerevisiae wt1 strain (SPY 50644) growth inhibition; at 33.0 µM; stronger effect = higher value
Compounds without any hit were thinned out: in the full panel of roughly 79,000, 15% have a hit.
Quick reference for growth inhibition among some compounds
Reply with just the number (in %).

Cc1nc2ccccc2nc1NNc1ccccc1 : 17

Asked: State its growth inhibition: `Nc1n[n+]([O-])c2ccc(Cl)cc2[n+]1[O-]`
Given back: 62

Asked: Look up growth inhibition of `O=C(C[n+]1ccc2ccccc2c1)c1ccc2ccccc2c1` and report it.
Given back: -22

Asked: Could you please provide reported growth inhibition for `Clc1ccc(NCNC2Nc3ccccc3N2)cc1Cl` ? Thanks!
Given back: 81

Asked: Please report growth inhibition for the following compound: `COC1=C(N)C(=O)c2nc(-c3nc(C(=O)O)c(C)c(-c4ccc(OC)c(OC)c4O)c3N)ccc2C1=O`
Given back: 99

Asked: Supply growth inhibition value. Item: `S=c1sc2c(s1)SCCS2`
Given back: 0

====

// reported growth inhibition for each item listed
assay info: NCI Yeast Anticancer Drug Screen. Data for the cln2 rad14 strain (AID 165);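 also: 0% = growth equal to vehicle treated cultures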
test settings: S. cerevisiae cln2 rad14 strain, at 50.0 µM (retest, dose inferred, filed as 5.0), stronger effect = higher value
Compounds without any hit were thinned out: in the full panel of roughly 79,000, 15% have a hit.
Numeric only. Scale: %

Consider the worked cases shown below.
CC(=O)ON=C1C=CC(=C(C#N)c2ccc(Cl)cc2)C=C1 : 98
O=C1OC(OC/C(Br)=C(\Br)COC2OC(=O)C(Cl)=C2Cl)C(Cl)=C1Cl (centres undefined) : 96
CC(C)OC(=O)Nc1ccc2nc(-c3cscn3)[nH]c2c1 : 19
CNC(=O)OCc1c(COC(=O)NC)c(-c2ccc(Cl)c(Cl)c2)n2c1SCC2 : 23
O=C(NNc1ccccc1)c1ccc(Cl)c(Cl)c1 : 18
O=C1N=C2SC=C(NC(=S)Nc3ccccc3)N2NC12c1ccccc1-c1ccccc12 : 15

Asked: Supply measured growth inhibition of `CCCCCCOC(=O)NCCOC(=O)Nc1ccccc1` in your reply.
Given back: 19

Asked: Answer with the recorded growth inhibition for the compound listed here: `COc1ccc(/C=C/C(=O)c2ccccc2)cc1OC`
Given back: 34

Asked: Return reported growth inhibition. Input compound: `CCN(CC)CCNc1ccc2ncn3c4cc(OC)c(OC)c(=O)c4c(O)c1c23`
Given back: 48

Asked: Please indicate growth inhibition recorded for `O=[n+]1c2ccccc2n([O-])c2cc(Br)ccc21`
Given back: 99

Asked: Note down growth inhibition recorded for Cc1cccc(C(C)(C)C)c1NC(=O)C(C#N)C1=C(Cl)C(=O)c2ccccc2C1=O (centres undefined)
Given back: 97

====

assay info: NCI Yeast Anticancer Drug Screen. Data for the CLN2oe strain (AID 163);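 also: 0% = growth of vehicle-only control cultures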
test settings: S. cerevisiae CLN2oe strain, at 1.2 µM, stronger effect = higher value
About 79,000 compounds went through this panel and 15% of them were active in at least one assay; those are over-represented in the sample as a whole.
Reported values of growth inhibition for individual entries
Field format: number, assumed %, no unit text.

OC(CCNCc1ccccc1)c1ccc2ccccc2c1 (centres undefined) : 19
CC(C)/C(Cl)=N\OC(=O)Nc1ccc(F)cc1F : 7
O=C(NCCCNCCN1C(=O)c2cccc3cc([N+](=O)[O-])cc(c23)C1=O)c1cc(-c2ccccc2)nc2ccccc12 : 1
CN(C)CCCCN1c2ccccc2Sc2ccc(N=[N+]=[N-])cc21 : 19
O=c1[nH]c(-c2ccccc2)nc2c1sc1nc3ccccc3n12 : -52
O=[N+]([O-])c1ccc(N/N=C/Cc2ccccc2)c([N+](=O)[O-])c1 : -3
CCN(CC)CCNc1ccc2ncn3c4cc(OC)c(OC)c(=O)c4c(O)c1c23 : -6
O=[N+]([O-])c1cc[n+]([O-])cc1 : -3

Asked: State its growth inhibition for this molecule: `CC1=C(SCc2ccccc2)C(=O)c2ccccc2C1=O`
Given back: -44

Asked: Using known records, supply growth inhibition for `CCOc1c(N=Nc2ccccc2OC)c(C)nn1C(=S)S`
Given back: -6

Asked: Find the measured growth inhibition of Cc1ccc(NC(=O)/C(CC2N=c3c(ccc4c(O)c5ccccc5c(O)c34)=NC2O)=N/NC(C)(C)C)cc1 (centres undefined) and report it.
Given back: -5

Asked: For the molecule COc1cc(C2c3cc4c(cc3OC(OC(C)=O)C2C)OCO4)cc(OC)c1OC (centres undefined) , give its reported growth inhibition.
Given back: -7

Asked: Look up and state reported growth inhibition for O=C1OC(C2=CC(=O)c3ccccc3C2=O)C(Cl)=C1Cl (centres undefined)
Given back: -2

Asked: Give recorded growth inhibition. `c1ccc(CCN2CCc3ccccc3C2)cc1`
Given back: -3

Asked: Indicate the recorded growth inhibition value for this molecule: `CCOC(=O)c1cc([N+](=O)[O-])c(Sc2ncnc3nc[nH]c23)c([N+](=O)[O-])c1`
Given back: -18

====

assay info: NCI Yeast Anticancer Drug Screen. Data for the rad50 strain (AID 155);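 also: 0% = growth of vehicle-only cultures of the same strain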
test settings: S. cerevisiae rad50 strain growth inhibition; at 3.7 µM; stronger effect = higher value
About 79,000 compounds went through this panel and 15% of them were active in at least one assay; those are over-represented in the sample as a whole.
Here, each record is paired with measured growth inhibition data.
Respond numerically; units are % and should not be typed.

Solved entries (count: 4):
CCCC/C([O-])=C1/C(=O)N(c2ccccc2)N=C1C.CCCC/C([O-])=C1/C(=O)N(c2ccccc2)N=C1C.[Cu+2] : 2
CCCCCCCCCCCCNC(C)=O : -8
CC(C)=NOC(=O)Nc1ccc(Cl)cc1 : 11
NNC(=O)CCc1cc2ccccc2c2ccccc12 : -16

Asked: Report growth inhibition for `CSc1nc(C)c(CCOC(C)=O)c(N=P(c2ccccc2)(c2ccccc2)c2ccccc2)n1`
Given back: -8

Asked: Supply measured growth inhibition of `CCC(=O)c1cc(C(=O)C(=S)SC)cc(C(=O)C(=S)SC)c1` in your reply.
Given back: 43

Asked: Return reported growth inhibition. Input molecule: `COc1ccc2c(c1)n([O-])c1ccccc1[n+]2=O`
Given back: 33

Asked: Complete the entry with growth inhibition for `COc1cc(/C=N/Nc2nnc3c4ccccc4c4ncccc4c3n2)cc(OC)c1OC`
Given back: 36

Asked: Check the records and state growth inhibition for `CS(=O)(=O)SCc1ccc([N+](=O)[O-])cc1`
Given back: 41

Asked: Kindly indicate its recorded growth inhibition. Item: `O/N=C\c1c(O)ccc2ccccc12`
Given back: 3

Asked: Write down growth inhibition measured for item `Cc1c2ccnc(C(=O)NCCN(C)C)c2cc2c3cc(O)ccc3n(C)c12`
Given back: 20

Asked: Supply growth inhibition value. Item: `O=C(Nc1ccc(Cl)cc1)Nc1nnc2nc(C(C(=O)c3cccc([N+](=O)[O-])c3Cl)c3nc4nnc(NC(=O)Nc5ccc(Cl)cc5)n4[nH]c3=O)c(=O)[nH]n12`
Given back: 0

Asked: Please list growth inhibition recorded for the molecule `NC(=O)C(=O)NNc1ccccc1`
Given back: 6

Asked: Give the reported value of growth inhibition for this record: `CCOC(=O)c1[nH]n(-c2ccccc2)c(=O)c1C=NC(=S)C(N)=S`
Given back: 29

The reported measurements were obtained from PubChem BioAssay (NCI).
